experiment: DRUGMATRIX: Imidazoline I2, Central radioligand binding (ligand: [3H] Idazoxan); assay type: cell membranes, Rattus norvegicus, Wistar, Cerebral cortex, Membrane; settings: Not Active = under 50% inhibition at 10 µM; read-out: IC50
measurementName: IC50 (nM)
Use nM as the unit, but write only the number.

// IC50 lookup, key: `CC(C)C[C@H]1C(=O)N2CCC[C@H]2[C@]2(O)O[C@](NC(=O)[C@@H]3C=C4c5cccc6[nH]c(Br)c(c56)C[C@H]4N(C)C3)(C(C)C)C(=O)N12` 53

What do you have for `N=C(N)N/N=C/c1c(Cl)cccc1Cl` ? 18

`C#CCN(C)[C@H](C)Cc1ccccc1` ? 1610

Would you mind doing CN1C[C@H](C(=O)N[C@]2(C)O[C@@]3(O)[C@@H]4CCCN4C(=O)[C@H](Cc4ccccc4)N3C2=O)C[C@@H]2c3cccc4[nH]cc(c34)C[C@H]21 [DIHYDROERGOTAMINE] as well? 2.5

###

Target: Cholecystokinin receptor type A (Homo sapiens); further: in other assays of this panel Not Active means under 50% inhibition at 10 µM
Sequence (P32238 whole entry): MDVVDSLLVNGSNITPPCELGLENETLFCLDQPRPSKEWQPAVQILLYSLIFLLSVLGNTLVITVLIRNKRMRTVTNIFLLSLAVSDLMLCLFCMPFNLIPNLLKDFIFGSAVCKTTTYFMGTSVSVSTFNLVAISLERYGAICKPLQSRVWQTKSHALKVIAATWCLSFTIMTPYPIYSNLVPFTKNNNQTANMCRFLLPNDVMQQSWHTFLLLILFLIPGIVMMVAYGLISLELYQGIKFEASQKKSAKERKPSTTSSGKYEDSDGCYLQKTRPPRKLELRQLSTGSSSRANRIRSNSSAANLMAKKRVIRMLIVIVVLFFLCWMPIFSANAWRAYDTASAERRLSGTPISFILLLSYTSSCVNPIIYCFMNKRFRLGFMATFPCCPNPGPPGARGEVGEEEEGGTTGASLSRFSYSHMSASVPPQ
Format: cell membranes, Membrane
Conditions: 1321-n1
measurementName: IC50

[
  {
    "compoundStructure": "O=C(O)Cc1ccc(-c2ccccc2)cc1",
    "result": "Not Active"
  },
  {
    "compoundStructure": "CCOC(=O)[C@H](CCc1ccccc1)N[C@@H](C)C(=O)N1CCC[C@H]1C(=O)O",
    "result": "Not Active"
  },
  {
    "compoundStructure": "NC[C@@H]1O[C@H](O[C@H]2[C@@H](O)[C@H](O[C@@H]3[C@@H](O)[C@H](N)C[C@H](N)[C@H]3O[C@H]3O[C@H](CN)[C@@H](O)[C@H](O)[C@H]3N)O[C@@H]2CO)[C@H](N)[C@@H](O)[C@@H]1O",
    "result": "Not Active"
  },
  {
    "compoundStructure": "CC(=O)OCC(CCn1cnc2cnc(N)nc21)COC(C)=O",
    "result": "Not Active"
  },
  {
    "compoundStructure": "CCc1oc2ccccc2c1C(=O)c1cc(Br)c(O)c(Br)c1",
    "result": "Not Active"
  }
]

Item `C[C@]12CC[C@H]3[C@@H](CCC4=CC(=O)CC[C@@]43C)[C@@H]1CC[C@@H]2O` with Cholecystokinin receptor type A (Homo sapiens) - IC50? Not Active

###

Would you mind telling me the reported IC50 of each entry?
target: Mu-type opioid receptor (Homo sapiens, UniProt P35372); assay: DRUGMATRIX: Opiate mu (OP3, MOP) radioligand binding (ligand: [3H] Diprenorphine); format: cell membranes, CHO-K1, Membrane; conditions: Not Active = under 50% inhibition at 10 µM; read-out: IC50
Sequence (P35372 whole entry): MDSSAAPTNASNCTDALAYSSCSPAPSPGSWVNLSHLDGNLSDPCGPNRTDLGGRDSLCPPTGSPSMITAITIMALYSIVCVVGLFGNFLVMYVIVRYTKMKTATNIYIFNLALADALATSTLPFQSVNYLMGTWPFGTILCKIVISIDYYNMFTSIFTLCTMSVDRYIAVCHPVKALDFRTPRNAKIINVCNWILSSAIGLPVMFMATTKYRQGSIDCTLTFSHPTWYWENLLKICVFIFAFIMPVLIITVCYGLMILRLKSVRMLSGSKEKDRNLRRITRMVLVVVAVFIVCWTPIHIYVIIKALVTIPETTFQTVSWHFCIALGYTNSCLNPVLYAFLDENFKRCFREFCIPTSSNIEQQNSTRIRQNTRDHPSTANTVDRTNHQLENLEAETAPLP
Be sure to follow the number with its unit.

I'd like to know its IC50. The molecule in question is CC(=O)O[C@]1(C(C)=O)CC[C@H]2[C@@H]3C=C(Cl)C4=CC(=O)[C@@H]5C[C@@H]5[C@]4(C)[C@H]3CC[C@@]21C [CYPROTERONE ACETATE] 2.18 µM

What would you report for C#C[C@]1(O)CC[C@H]2[C@@H]3CCc4cc(O)ccc4[C@H]3CC[C@@]21C [ETHINYL ESTRADIOL] ? 26.8 µM

Let us now turn to C#C[C@]1(O)CC[C@H]2[C@@H]3CCC4=Cc5oncc5C[C@]4(C)[C@H]3CC[C@@]21C [DANAZOL] 14.1 µM

Can you check OCCN1CCN(CCCN2c3ccccc3Sc3ccc(C(F)(F)F)cc32)CC1 [FLUPHENAZINE] next? 20.7 µM
